The entries below come with measured GI50 values attached.
Tested on: UACC-62
assayProcedure: NCI tumour cell line growth inhibition, 48 h
Active and inactive are the calls of the source. Cut-off read from the data, not from the text of the source: active = GI50 up to about 1.1 µM and inactive = higher.
reportedMetric: GI50

* C=CCc1c(O)c2c(c3oc(=O)cc(C)c13)CC(C)O2 (stereo not given) | > 100 µM (inactive)
* CC(C)N(C(=O)C12C3C4C5C3C1(C(=O)N(C(C)C)C(C)C)C5C42)C(C)C (stereo not given) | > 100 µM (inactive)
* Cc1ccc(S(=O)(=O)NC(=O)NCCc2ccc(O)c(O)c2)cc1 | > 100 µM (inactive)
* CCN(CC)CCNC(=O)c1nn(-c2ccc(Cl)cc2)c2c1CCc1cc(OC)ccc1-2 | 2.77 µM (inactive)
* Cc1ccc(C2=C(Cl)C(=O)C(c3ccc(C)cc3)=C(Cl)C2=O)cc1 | > 100 µM (inactive)

###

The entries below come with measured GI50 values attached.
Tested on: HOP-62
assayProcedure: NCI tumour cell line growth inhibition, 48 h
Calls of active or inactive are those of the source. Rule as the data show it: active = GI50 up to about 1.1 µM and inactive = higher.
reportedMetric: GI50

- CCOC(=O)c1nc2c(Cl)c3ncccc3cc2[nH]c1=O: 25.6 µM (inactive)
- COC(=O)c1cccc(C)c1C1CN=NC12Cc1c(ccc(C)c1C)C2=O (configuration not stated): 51.6 µM (inactive)
- COC(=O)[C@@H]1N2C(=S)N(c3ccccc3)C(=O)[C@H]2SC1(C)C: > 100 µM (inactive)
- O=C(/C=C/c1cccs1)c1ccsc1: 73.5 µM (inactive)
- O=C(O)c1cccc(/C=C/c2ccccc2)c1: > 100 µM (inactive)
- CS(=O)(=O)N(CC(=O)O)Cc1ccccc1: > 100 µM (inactive)
- N#Cc1c(OCCF)c2ccccc2n2c1nc1ccccc12: 29.9 µM (inactive)

###

Test system: OVCAR-5
assayProcedure: NCI tumour cell line growth inhibition, 48 h
Calls of active or inactive are those of the source. Cut-off read from the data, not from the text of the source: active = GI50 up to about 1.1 µM and inactive = higher. *1 amine or outer side, *2 acyl side, *3 side chain or, on linkers, in order; H or OH if unused. Where a SMILES comes first, the peptide text is derived from it. Square brackets hold non-standard residues; d marks the D form. Residues, ends and D or L forms follow the SMILES beside them. Bridges are numbered along the chain shown (N, C = ends). Roman numbers before positions name the chains, in order. Peptide text beside a SMILES is read from it. [ ]: non-standard residue; d: D form. * marks the point of attachment. *: point of attachment. Actinocin(9to1) = Cc1c2oc3c(C)ccc(C(=O)[*:1])c3nc-2c(C(=O)[*:2])c(N)c1=O; Phe(4-NO2) = N[CH](Cc1ccc([N+](=O)[O-])cc1)C(=O)O; Hyp = O=C(O)[CH]1C[CH](O)CN1; NMeV = CN[CH](C(=O)O)C(C)C; Cbz = O=C(OCc1ccccc1)*; Boc = CC(C)(C)OC(=O)*; Sar = CNCC(=O)O
reportedMetric: GI50

• COC(=O)/C=C(/C(=O)OC)c1c(C)c(C)c2c(C)cc(C)cc(C)c1-2 = 19.1 µM (inactive)
• CCOC(=O)CCC1(C(=O)O[C@@H]2C[C@H](C)CC[C@H]2C(C)C)CCCCC1=O (some centres not stated) = > 100 µM (inactive)
• COC(=O)C(Cc1ccc2c(c1)CCC2)Cc1ccc2c(c1)CCC2 = > 100 µM (inactive)
• CCOC(=O)C(C)NC(=O)NC12CC3CC(CC(F)(C3)C1)C2 (configuration not stated) = > 100 µM (inactive)
• COc1ccc(OC)c(/C=N/N=C2\C(=O)Nc3c(Cl)cc(Cl)cc32)c1 = > 100 µM (inactive)
• Cc1ccc(NC(=O)CCC/C(CC(=O)c2ccc(Br)cc2)=N/NC(=O)CC#N)cc1 = > 100 µM (inactive)
• CCOC(=O)C(NC(=O)c1ccccc1)(c1ccc(S(=O)(=O)Nc2onc(C)c2C)cc1)C(F)(F)F (configuration not stated) = > 100 µM (inactive)
• CC1=C2C(O)C(C(C)C(=O)NC(C)C)CCC2(C)C=CC1=O (configuration not stated) = > 100 µM (inactive)
• CCOC(=O)CCC(NC(=O)OCc1ccccc1)C(=O)NC(CCC(=O)OCC)C(=O)NC(CCC(=O)OCC)C(=O)NC(CCC(=O)OCC)C(=O)NC(CCC(=O)OCC)C(=O)NC(Cc1ccc([N+](=O)[O-])cc1)C(=O)NC(CCC(=O)OCC)C(=O)NC(CCC(=O)OCC)C(=O)NC(CCC(=O)OCC)C(=O)NC(CCC(=O)OCC)C(=O)NC(CCC(=O)OCC)C(=O)OCC (configuration not stated) (Cbz-E(OEt)E(OEt)E(OEt)E(OEt)E(OEt)[Phe(4-NO2)]E(OEt)E(OEt)E(OEt)E(OEt)E(OEt)-OEt; configuration not given here) = > 50 µM (inactive)
• C=CCOC(=O)C1=C(C)N=C2N[C@H](CCCCCCCCC)C[C@@H]3CCC1N23 (some centres not stated) = 22.7 µM (inactive)
• CC1(C)OCC([C@H]2CC23SCCCS3)O1 (some centres not stated) = > 100 µM (inactive)
• Cc1c(C(=O)OCc2ccccc2)[n+]([O-])c2cc(F)c(F)cc2[n+]1[O-] = 3.72 µM (inactive)
• COC(=O)[C@@H](COC(=O)/C=C/c1ccc(OC(C)=O)c(OC(C)=O)c1)NC(=O)/C=C/c1ccc(OC(C)=O)c(OC(C)=O)c1 = 45.8 µM (inactive)
• COC(=O)CC1(O)C=CC(=O)C=C1 = 8.99 µM (inactive)
• CCCCNCC(=O)O[C@]1(CC)C(=O)OCc2c1cc1n(c2=O)Cc2cc3ccccc3nc2-1 = 0.535 µM (active)
• COc1ccc(/C(Nc2ccccc2)=C(\CCl)c2ccccc2)cc1OC = > 100 µM (inactive)
• O=C(CCc1nnc2s/c(=C\c3ccc(Cl)c(Cl)c3)c(=O)n12)Nc1ccc(Cl)c(Cl)c1 = > 100 µM (inactive)
• Cc1ccc2c(c1)CNc1ccc(C)cc1CN2 = > 100 µM (inactive)
• CC(C)(C)OC(=O)NC(Cc1ccc(O)cc1)C(=O)NC(CCCCN)C(=O)O (stereo not drawn) (Boc-Tyr-Lys-OH; configuration not given here) = 25 µM (inactive)
• S=C(/N=C1/NCC(CN2CCN(c3ccccc3)CC2)O1)Nc1ccccc1 (configuration not stated) = > 100 µM (inactive)
• O=c1[nH]c2cc3cccnc3c(Cl)c2nc1C(F)(F)F = > 100 µM (inactive)
• Nc1ccc2nc3n(c2c1)C(=O)c1ccccc1-3 = > 100 µM (inactive)
• COc1cccc(Nc2nc(C)c([N+](=O)[O-])c(Nc3cccc(OC)c3)n2)c1 = > 100 µM (inactive)
• CN1C(=O)C(=CN)C(=O)N(C)C1=O = > 100 µM (inactive)
• CC1CCOc2ccc(cc2)/C=N\c2ccc(cc2)-c2ccc(cc2)/N=C\c2ccc(cc2)OCC1 = > 100 µM (inactive)
• Cc1c2oc3c(C)ccc(C(=O)NC4C(=O)NC(C(C)C)C(=O)N5CC(O)CC5C(=O)N(C)CC(=O)N(C)C(C(C)C)C(=O)OC4C)c3nc-2c(C(=O)NC2C(=O)NC(C(C)C)C(=O)N3CC(O)CC3C(=O)N(C)CC(=O)N(C)C(C(C)C)C(=O)OC2C)c(N)c1=O (configuration not stated) (I: TV[Hyp][Sar][NMeV] / II: TV[Hyp][Sar][NMeV]; ester I:1-I:C, II:1-II:C; linker I:N-II:N via Actinocin(9to1); configuration not given here) = > 1 µM (active)
• N#C/C(=C1\N=NC(N)=C(c2ccc(Cl)cc2)C1=O)c1ccc(Cl)cc1 = > 100 µM (inactive)

###

Test system: SN12C
assayProcedure: NCI tumour cell line growth inhibition, 48 h
Activity calls are given as the source filed them. Cut-off read from the data, not from the text of the source: active = GI50 up to about 1.1 µM and inactive = higher.
Labels: T = active, F = inactive

- CC(=O)c1cc2c(s1)C(=O)c1ccsc1C2=O: T
- CC(=O)O[C@H]1[C@@H]2[C@@H]3[C@@H](C[C@H]1C)[C@@H](C)CO[C@@]1(C)CC/C=C(/C)C[C@@H]2O[C@@H]31: F
- COC(=O)[C@@H]1N2C(=S)N(c3ccccc3)C(=O)[C@H]2SC1(C)C: F

###

Tested on: ACHN
assayProcedure: NCI tumour cell line growth inhibition, 48 h
Active and inactive are the calls of the source. Cut-off read from the data, not from the text of the source: active = GI50 up to about 1.1 µM and inactive = higher.
Labels: active, inactive

• CCN(CC)CCNC(=O)c1nn(-c2ccc(Cl)cc2)c2c1CCc1cc(OC)ccc1-2 = inactive
• COc1ccc(/C(Nc2ccccc2)=C(\CCl)c2ccccc2)cc1OC = inactive
• CCCCNCC(=O)O[C@]1(CC)C(=O)OCc2c1cc1n(c2=O)Cc2cc3ccccc3nc2-1 = active
• O=C(O)COc1cccc2ccccc(=O)c12 = inactive
• O=P(O)(O)c1ccc2c(c1)OCCOCCOCCOCCO2 = inactive
• C=CCN1COc2c(cc3c4c(cccc24)C(=O)O3)C1 = inactive
• O=C1C(N2CCN(c3ccccn3)CC2)=C(Cl)C(=O)c2ncccc21 = inactive
• O=C(Oc1ccc2c(c1)CN(Cc1ccccc1)CO2)c1ccccc1 = inactive
• N#Cc1nc(CCC(c2nc(C#N)c(N)o2)N2C(=O)c3ccccc3C2=O)oc1N (stereo not given) = inactive
• Cc1nc2c(n1CCO)C(=O)c1ccccc1C2=O = inactive
• Cc1ccc(S(=O)(=O)Nn2c(-c3ccccc3)c(C#N)c(-c3ccc(Cl)cc3)c(C#N)c2=O)cc1 = inactive
• Fc1cccc(Cl)c1/C=N\N=C1c2ccccc2-c2ccccc21 = inactive
• CC(=O)OC1CC2(C)C(OC(C)=O)CC1C2(C)C (stereo not given) = inactive
• Cc1nnc([C@@]2(C)CC[C@H]3[C@@H](CCC4=CC(=O)CC[C@@]43C)[C@@H]2CC#N)o1 = inactive
• CN(C)CCCNC(=O)CNC(=O)c1cc(NC(=O)c2cc(NC(=O)c3cc(NC(=O)CCNC(=O)c4cc(NC(=O)c5cc(NC(=O)c6nccn6C)cn5C)cn4C)cn3C)cn2C)cn1C = inactive
• Nc1ccc(C(=O)N2CCC[C@H]2CO)c(N)c1 = inactive
• COc1ccc(NC(=O)CC/C(CC(=O)c2ccco2)=N/NC(N)=S)cc1 = inactive
• CCOC(=O)c1nc2ccc(C(F)(F)F)cc2nc1NCc1cc(OC)c(OC)c(OC)c1 = inactive
• CCOC(=O)/C(C#N)=C1\c2c([nH]c(=S)[nH]c2=O)Oc2ccc3ccccc3c21 = inactive
• COC(=O)c1ccccc1Nc1nc(-c2cccs2)nc2cc(OC)c(OC)cc12 = inactive
